system: rice; assay: Test C flooded paddy test; format: in vivo, Oryza sativa; settings: Flood; 250 g ai/ha; scale 0 to 100
measurement_kind: Plant response rating, Rice
Reply with the value as a number alone.

Answered examples (3):
compound: CS(=O)(=O)c1ccccc1NC(=O)C1C(=O)NCC1c1ccc(F)c(F)c1 (racemic) [Compound 21]
data_value: 0

compound: O=C1NCC(Br)(c2ccccc2)C1C(=O)Nc1ccccc1F (stereo not shown) [Compound 92]
data_value: 20

compound: O=C1NCC(c2cccc(C(F)(F)F)c2)C1C(=O)Nc1nnc(C(F)(F)F)s1 (racemic) [Compound 112]
data_value: 0

Attention now shifts to the item below.
So what's the measured Plant response rating, Rice for this one? O=C1NCC(c2ccc(Cl)c(Cl)c2)C1C(=O)Nc1cccc(F)c1F (racemic) [Compound 25] 0

###

tested on: ryegrass, Italian; test: Test C pre-/postemergence herbicide test; type: in vivo, Lolium multiflorum; settings: Preemergence, 125 g ai/ha; scale 0 to 100 (0 no effect, 100 complete control)
measurement_kind: Plant response rating, Ryegrass, Italian
Reply with the value as a number alone.

Answered examples (5):
molecule: O=C1NC[C@H](c2cccc(C(F)(F)F)c2)[C@H]1C(=O)Nc1cccc(F)c1F [Compound 206]
measurement_kind: Plant response rating, Ryegrass, Italian
data_value: 45
--
molecule: O=C1NCC(c2cccc(OC(F)F)c2)C1C(=O)Nc1cccc(F)c1F (stereo not drawn) [Compound 224]
measurement_kind: Plant response rating, Ryegrass, Italian
data_value: 0
--
molecule: O=C1NCC(c2ccc(Cl)c(F)c2)C1C(=O)Nc1cccc(F)c1F (stereo not drawn) [Compound 52]
measurement_kind: Plant response rating, Ryegrass, Italian
data_value: 0
--
molecule: O=C1NCC(c2ccc(F)c(F)c2)C1C(=O)Nc1cccc(F)c1F (racemic) [Compound 101]
measurement_kind: Plant response rating, Ryegrass, Italian
data_value: 30
--
molecule: O=C1NCC(c2ccc(C(F)(F)F)cc2)C1C(=O)Nc1cccc(F)c1F (racemic) [Compound 202]
measurement_kind: Plant response rating, Ryegrass, Italian
data_value: 30

What Plant response rating, Ryegrass, Italian appears in the records for this molecule with ryegrass, Italian? O=C1NCC(c2ccc(F)cc2)C1C(=O)Nc1ccc(F)c(F)c1F (racemic) [Compound 120] 10

###

test system: ryegrass, Italian; assay: Test C pre-/postemergence herbicide test; type: in vivo, Lolium multiflorum; conditions: Preemergence, 31 g ai/ha; scale 0 to 100, 0 is no effect and 100 is complete control
measurement_kind: Ryegrass, Italian plant response rating
Reply with the value as a number alone.

Answered examples (2):
compound: O=C1NCC(c2ccc(F)c(F)c2)C1C(=O)Nc1cccc(F)c1F (racemic)
data_value: 30
--
compound: O=C1NCC(c2ccc(C(F)(F)F)cc2)C1C(=O)Nc1cccc(F)c1F (stereo not shown)
data_value: 0

So what's the measured Ryegrass, Italian plant response rating for this one? O=C1NCC(c2cccc(OC(F)(F)F)c2)C1C(=O)Nc1ccccc1F (stereo not shown) 0

###

tested on: rice; test: Test C flooded paddy test; format: in vivo, Oryza sativa; conditions: Flood, 31 g ai/ha; scale of 0 to 100 where 0 is no effect and 100 is complete control; 13 to 15 days
measurement_kind: Plant response rating, Rice
Reply with the value as a number alone.

Answered examples (4):
molecule: O=C1NCC(c2ccc(F)c(F)c2)C1C(=O)Nc1cccc(F)c1F (centres unmarked)
Plant response rating, Rice: 0

molecule: O=C1NCC(Br)(c2ccccc2)C1C(=O)Nc1ccccc1F (centres unmarked)
Plant response rating, Rice: 10

molecule: CC(C)c1cccc(C2CNC(=O)C2C(=O)Nc2ccccc2F)c1 (centres unmarked)
Plant response rating, Rice: 0

molecule: O=C1NCC(c2ccccc2)C1(Br)C(=O)Nc1ccccc1F (centres unmarked)
Plant response rating, Rice: 10

What Plant response rating, Rice appears in the records for this molecule with rice? CN1CC(c2ccc(F)c(F)c2)C(C(=O)Nc2cccc(F)c2F)C1=O (centres unmarked) 0
